This collection of values is drawn from patent US12312330B2.

- test_target: human bradykinin B2 receptor (hB2R) (Homo sapiens)
- Sequence (P30411 whole entry): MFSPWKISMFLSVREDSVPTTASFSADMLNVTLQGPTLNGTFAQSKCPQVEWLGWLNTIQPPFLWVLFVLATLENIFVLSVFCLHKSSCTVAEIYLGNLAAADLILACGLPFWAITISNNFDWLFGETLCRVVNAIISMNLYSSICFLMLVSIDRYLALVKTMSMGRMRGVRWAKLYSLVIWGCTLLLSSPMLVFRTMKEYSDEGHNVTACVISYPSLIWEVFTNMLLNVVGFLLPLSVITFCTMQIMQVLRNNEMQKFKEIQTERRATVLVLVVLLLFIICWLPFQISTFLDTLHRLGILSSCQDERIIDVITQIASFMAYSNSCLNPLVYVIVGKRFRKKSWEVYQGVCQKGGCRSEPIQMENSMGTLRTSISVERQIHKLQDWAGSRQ
- assay_method_text: human bradykinin B2 receptor calcium mobilization (hB2R-CaM) assay
- experimental_conditions: antagonism of bradykinin (EC80) induced calcium mobilization, B2 Bradykinin Receptor Stable Cell Line HTS041C, 25 min pre-incubation; read-out: IC50-value towards human bradykinin B2 receptor (hB2R)
We begin with a simple list: items and their reported IC50.

// known answers, use as guide
[[record]]
molecule = "Cc1cc(-n2cc(F)cn2)c2cccc(OCc3c(Cl)cc(F)cc3[C@H](C)N3C[C@@H](C)NC(=O)C3=O)c2n1"
measurement_kind = "IC50"
test_result = "≤ 10 nM"

[[record]]
molecule = "Cc1cc(-c2ncnn2C)c2cccc(OCc3c(Cl)cc(F)cc3[C@H](C)N3CCC[C@@H](O)C3=O)c2n1"
measurement_kind = "IC50"
test_result = "11 to 100 nM"

[[record]]
molecule = "Cc1cc(-n2cc(F)cn2)c2cccc(OCc3c(Cl)cc(F)cc3[C@H](C)N3CC(=O)N(CC(N)=O)C3=O)c2n1"
measurement_kind = "IC50"
test_result = "11 to 100 nM"


# query: IC50 of entry COC1CN([C@@H](C)c2cc(F)cc(Cl)c2COc2cccc3c(-n4cc(F)cn4)cc(C)nc23)C(=O)O1 (single isomer, unassigned) [compound 51] 11 to 100 nM

# query: IC50 of entry `Cc1cc(-n2cc(F)cn2)c2cccc(OCc3c(Cl)cc(F)cc3[C@H](C)N3CC[C@@H](OC(F)F)C3=O)c2n1` 11 to 100 nM

# query: IC50 of entry Cc1cc(-n2cc(F)cn2)c2cccc(OCc3c(Cl)cc(F)cc3[C@H](C)N3C(=O)N(C4CC4)C(=O)C3C)c2n1 (single isomer, unassigned) [compound 31] 101 to 500 nM

# query: IC50 of entry `Cc1cc(-n2cc(F)cn2)c2cccc(OCc3c(Cl)cc(F)cc3[C@H](C)N3CC(=O)N(C)[C@@H](C)C3=O)c2n1` ≤ 10 nM

# query: IC50 of entry `Cc1cc(-n2cc(F)cn2)c2cccc(OCc3c(Cl)cc(F)cc3[C@H](C)N3CC(=O)N(CCO)C3=O)c2n1` ≤ 10 nM

# query: IC50 of entry `Cc1cc(-n2cc(F)cn2)c2cccc(OCc3c(Cl)cc(F)cc3[C@H](C)N3CCNC(C)(C)C3=O)c2n1` 11 to 100 nM
